Experiment: TEAD-YAP interaction inhibition, primary screen, TEAD-YAP interaction inhibitor project, luminescence, HEK-TIYL cells (AID 1259422);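 note: 0% = median of test compound wells and 100% = reference inhibitor wells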
Conditions: TEAD-Gal4/YAP UAS-luciferase luminescence, at 9.12 µM, active compounds read high
The campaign covered roughly 640,000 compounds. About 9,300 (1.5%) were called active. The sample as a whole holds a higher share of actives than the screen did.
Recorded metric: inhibition (%)
Give bare numbers, in %.

| Molecule | Recorded metric | Endpoint value |
| --- | --- | --- |
| CCOC(=O)N1CCC(N2C(=O)c3ccc(C(=O)NCC(OC)OC)cc3C2=O)CC1 | inhibition | 10.6 |
| COc1ccc(C)cc1NC(=O)CN1C(=O)C(C)N(c2ccc(C)cc2)C1=O (stereo unspecified) | inhibition | 8.14 |
| O=C(NCc1ccc(F)cc1)c1ccc2nc3[nH]c4ccccc4c3nc2c1 | inhibition | 4.49 |
| Cc1ccc[n+](CC(=O)c2ccc(Cl)cc2)c1C | inhibition | 1.36 |
| CCOC(=O)CSC1=C(C#N)C(c2ccccc2)CC(=O)N1 (stereo unspecified) | inhibition | 53.9 |
| N#CC1=C(SCC(=O)OCc2ccccc2)NC(=O)CC1c1ccc(F)cc1 (stereo unspecified) | inhibition | 6.22 |
| NC(=O)COC(=O)c1cccc(S(=O)(=O)NCc2ccccc2)c1 | inhibition | -3.84 |
| COc1ccc(C(=O)C[n+]2ccc(N)c(C)c2C)cc1 | inhibition | 33 |
| O=c1c(Cl)c(Cl)cnn1-c1nc2ccccc2[nH]1 | inhibition | 56.5 |
| CC1CCN(c2cc(NCC(=O)O)c3c4c(onc24)-c2ccccc2C3=O)CC1 | inhibition | 64 |

Now for another entry.
Look up inhibition of `N#Cc1cnn(-c2nc3ccccc3[nH]2)c1N` and report it.
-4.74

* * *

Experiment: TEAD-YAP interaction inhibition, primary screen, TEAD-YAP interaction inhibitor project, luminescence, HEK-TIYL cells (AID 1259422);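 note: 0% = median of test compound wells and 100% = reference inhibitor wells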
Conditions: TEAD-Gal4/YAP UAS-luciferase luminescence, at 9.12 µM, active compounds read high
About 9,300 (1.5%) of roughly 640,000 compounds were called active. This is one part of a sample in which actives are shown more often than they occur.
Recorded metric: inhibition (%)
One number for each entry, in %.

| Compound | Units label | inhibition |
| --- | --- | --- |
| COc1ccccc1N1CCN(C(=O)CSc2nc3ccsc3c(=O)n2-c2ccccc2)CC1 | % | 1.01 |
| COc1ccccc1N1CCN(C(=O)CSc2nc3ccccc3c(=O)n2Cc2cccs2)CC1 | % | -7.66 |
| O=C1CS(=O)(=O)C(c2ccccc2[N+](=O)[O-])N1c1ccc(Oc2ccc(Cl)cc2)cc1 (stereo not given) | % | 11.6 |
| Cc1ccc(Oc2ccc(NC(=O)c3ccc(Br)c([N+](=O)[O-])c3)cc2)cc1 | % | 20.9 |

Now consider the entry below.
Given CCCC1(C2CCN(C(=O)c3ccc(F)c(F)c3)CC2)NC(=O)N(CC2CCCO2)C1=O (stereo not given) , respond with its inhibition.
-9.71

* * *

Assay: TEAD-YAP interaction inhibition, primary screen, TEAD-YAP interaction inhibitor project, luminescence, HEK-TIYL cells (AID 1259422);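 note: 0% = median of test compound wells and 100% = reference inhibitor wells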
Settings: TEAD-Gal4/YAP UAS-luciferase luminescence, at 9.12 µM
Hit rate of the full screen: of about 640,000 compounds, about 9,300 (1.5%) were called active. No stated cut-off is given here; in the data, active means inhibition above about 32%; inactive means the rest. For the sample, actives were picked, then their nearest neighbours and some compounds at random.
Write down the outcome that applies. Available outcomes: active, inactive

Consider the worked cases shown below.
| Compound | Category |
| --- | --- |
| CCOc1ccc(C(=O)CCC(=O)OCC(=O)c2ccc3c(c2)OCCO3)cc1 | inactive |
| O=C(NCc1ccon1)c1cccc(OC2CCN(C(=O)C3CC3)CC2)c1 | inactive |
| COc1cc(OC)nc(Oc2cccnc2/C=N/Nc2ccccc2[N+](=O)[O-])n1 | inactive |
| CCOc1ccc(-n2c(-c3ccc4c(c3)OCCO4)c[n+]3c2CCCCC3)cc1 | active |
| Cc1ccc(NC(=O)/C(=C/c2ccc(Cl)cc2)NC(=O)c2ccco2)cc1 | inactive |

Status in this test for `CCOC(=O)c1cc([N+](=O)[O-])sc1NC(=O)c1cc(Cl)sc1Cl` ?
inactive

Recorded test outcome, item COc1ccc(NC(=O)C(C)Oc2cc(C)cc(C)c2)cc1 (stereo unspecified)
inactive

GET /call?item= `CCOc1ccc2c(=O)c(-c3ccc4c(c3)OCCCO4)c(C)oc2c1` returns the recorded outcome of this test.
inactive

What classification did COc1ccccc1NC(=O)NC(CC(=O)O)c1ccc(C)cc1 (stereo unspecified) end up with in this test?
inactive

Record lookup: outcome of this test for `COc1cc(Nc2nc(-c3ccc(C(=O)NC4CC4)cc3)nc3c2ncn3-c2ccsc2)cc(OC)c1OC` ?
inactive

Please share the test call associated with COc1ccc(OC(C)C(=O)Nc2cccc(Br)c2)cc1 (stereo unspecified) .
inactive

* * *

Assay: TEAD-YAP interaction inhibition, primary screen, TEAD-YAP interaction inhibitor project, luminescence, HEK-TIYL cells (AID 1259422);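 note: 0% = median of test compound wells and 100% = reference inhibitor wells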
Conditions: TEAD-Gal4/YAP UAS-luciferase luminescence, at 9.12 µM
The campaign covered roughly 640,000 compounds. About 9,300 (1.5%) were called active. Cut-off read from the data, not from the text of the source: active = inhibition above about 32%; inactive = the rest. Only a selection was taken, and actives are over-represented in it overall.
The categories you may choose from are T = active, F = inactive

| Chemical structure | Category |
| --- | --- |
| CCOC(=O)N/N=C/c1ccc(OS(=O)(=O)c2ccc(C)cc2)c(OC)c1 | F |

Please indicate how the test categorized `N=C1S/C(=C/c2ccc(-c3cc(Cl)ccc3[N+](=O)[O-])o2)C(=O)N1c1nonc1N` .
F

* * *

Assay: TEAD-YAP interaction inhibition, primary screen, TEAD-YAP interaction inhibitor project, luminescence, HEK-TIYL cells (AID 1259422);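 note: 0% = median of test compound wells and 100% = reference inhibitor wells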
Details: TEAD-Gal4/YAP UAS-luciferase luminescence, at 9.12 µM, active compounds read high
In all, about 640,000 compounds went through this assay and about 9,300 (1.5%) were called active. Only a selection was taken, and actives are over-represented in it overall.
Recorded metric: inhibition (%)
Numbers only, in %.

Solved entries:
| Chemical structure | inhibition, % |
| --- | --- |
| CCCCn1c(CNC(=O)c2cccc(OC)c2)nnc1SCC(=O)Nc1sc2c(c1C(=O)OCC)CCCC2 | 1.81 |
| CN1CCN(c2ccc(-c3cc(NCCOc4ccccc4)nc(N)n3)cc2)CC1 | 23.1 |
| COc1ccc(OCC(=O)c2ccc(F)cc2)c(C#N)c1 | -65.6 |
| COc1ccccc1OCC(=O)Nc1ncc(Cc2cccc(C)c2)s1 | 3.43 |
| Fc1cnc(Nc2ccc(N3CCNCC3)cc2)cc1-n1cnc(Nc2ccccc2)n1 | 64.6 |

For the 5 molecules below, give their inhibition values.
1. CCOCCCn1c(SCc2cc(=O)n3ccccc3n2)nc2ccccc2c1=O
2. c1cncc(Nc2nccc(Nc3ccc(N4CCOCC4)cc3)n2)c1
3. CN1CCN(c2ccc(-c3cc(Nc4ccc(N5CCOCC5)cc4)nc(N)n3)cc2)CC1
4. Cn1nccc1Nc1cc(Nc2ccc(N3CCOCC3)cc2)ncn1
5. CCN1CCN(c2cc(Nc3cc(OC)c(OC)c(OC)c3)c3c4c(onc24)-c2ccccc2C3=O)CC1

1: 0.02; 2: 2.14; 3: 64.9; 4: 2.78; 5: 5.58

* * *

Test: TEAD-YAP interaction inhibition, primary screen, TEAD-YAP interaction inhibitor project, luminescence, HEK-TIYL cells (AID 1259422);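 note: 0% = median of test compound wells and 100% = reference inhibitor wells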
Conditions: TEAD-Gal4/YAP UAS-luciferase luminescence, at 9.12 µM
In all, about 640,000 compounds went through this assay and about 9,300 (1.5%) were called active. Cut-off read from the data, not from the text of the source: active = inhibition above about 32%; inactive = the rest. This is one part of a sample in which actives are shown more often than they occur.
Your reply should match one of these outcome classes. label 1 = active, label 0 = inactive

| Compound | Category |
| --- | --- |
| CC(C)CCNC(=O)C1CC(=O)N(C2CCCCC2)C1 (stereo unspecified) | label 0 |

// return assay outcome for `COc1ccc(Cl)cc1S(=O)(=O)N1CCN(CC(=O)Nc2ccc(C(N)=O)cc2)CC1`
label 0

Hi team, can someone confirm the assay call for `O=C(c1ccco1)N1CCN(c2nccn3c(-c4cccc(O)c4)cnc23)CC1` ?
label 0

Check the results log: what was the call for `Cn1nnc2c(N3CCN(CC(=O)Nc4ccccc4F)CC3)ncnc21` ?
label 0

GET /call?item= CC1=C(C(=O)OC(C)C)C(c2cccs2)C2=C(CC(c3ccco3)CC2=O)N1 (stereo unspecified) returns the recorded outcome of this test.
label 1

Tell me the assay call for CC1=C(C(=O)OCC2CCCO2)C(c2cccs2)C2=C(CC(c3cccs3)CC2=O)N1 (stereo unspecified) please.
label 0

State the result this test recorded for `COc1ccc(CNCc2c(C(=O)O)[nH]c3ccccc23)cc1` .
label 0

// outcome(item) with item = `Oc1ccc2ccccc2c1/C=N/Nc1nccnc1Cl`
label 0

Test call for this compound, please: `Oc1ccc(-c2nc(-c3ccccc3Cl)no2)cc1`
label 1

For this compound, state the assay outcome: `Cc1nc(N2CCN(c3ccccn3)CC2)c2c(C)c(C(=O)Nc3ccccc3C(F)(F)F)sc2n1`
label 0

Fill in: this test's call for `Cc1ccc(-c2nc(-c3ccccc3Cl)no2)cc1` is ___
label 0

The measured values listed here are drawn from PubChem BioAssay AID1259422.
